Listed compounds paired with reported EC50
measured-on: Glycine receptor subunit alpha-1 (Homo sapiens)
Sequence (P23415 whole entry): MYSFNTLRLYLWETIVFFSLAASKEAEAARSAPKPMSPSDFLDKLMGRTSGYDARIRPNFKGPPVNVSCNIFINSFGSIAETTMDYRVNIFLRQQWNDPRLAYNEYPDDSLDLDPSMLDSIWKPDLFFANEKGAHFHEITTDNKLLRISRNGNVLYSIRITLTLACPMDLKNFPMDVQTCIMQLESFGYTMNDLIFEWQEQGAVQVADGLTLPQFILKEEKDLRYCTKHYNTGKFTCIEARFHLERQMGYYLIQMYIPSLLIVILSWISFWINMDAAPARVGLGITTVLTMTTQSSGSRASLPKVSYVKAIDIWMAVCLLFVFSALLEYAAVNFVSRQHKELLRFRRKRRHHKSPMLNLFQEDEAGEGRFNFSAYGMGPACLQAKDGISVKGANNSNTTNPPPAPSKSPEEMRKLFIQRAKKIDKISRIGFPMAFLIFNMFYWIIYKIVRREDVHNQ
assay-text: Potentiation of human GlyR-alpha1 expressed in Xenopus laevis oocytes assessed as induction of glycine-activated currents after 1 to 4 days by two-electrode voltage clamp assay
Assay type: cell-based
Answer in nM, number only, no unit symbol.

# example entries with known answers
C=C1CC[C@H](O)C/C1=C/C=C1\CCC[C@]2(C)[C@@H]([C@H](C)CCCC(C)C)CC[C@@H]12	400
CCCc1nc2c(C)cc(-c3nc4ccccc4n3C)cc2n1Cc1ccc(-c2ccccc2C(=O)O)cc1	3200
CNC(=O)c1cc(Oc2ccc(NC(=O)Nc3ccc(Cl)c(C(F)(F)F)c3)c(F)c2)ccn1	1800
COc1ccc(-c2ccc3cc(C(=O)O)ccc3c2)cc1C12CC3CC(CC(C3)C1)C2	1300
O=c1[nH]c2ccccc2n1C1CCN(CCCC(c2ccc(F)cc2)c2ccc(F)cc2)CC1 [PIMOZIDE]	1700

Need EC50 of CC1=C(CC(=O)O)c2cc(F)ccc2/C1=C\c1ccc([S+](C)[O-])cc1 (stereo not drawn) , thanks.
380

Need EC50 of `Cc1nc2n(c(=O)c1CCN1CCC(c3noc4cc(F)ccc34)CC1)CCCC2` , thanks.
320

Need EC50 of `CCCCCc1cc(O)c2c(c1)OC(C)(C)[C@@H]1CCC(C)=C[C@@H]21` , thanks.
1300
